The reader will find reported inhibition in vivo at 60 mg/kg values listed item by item below.
System: Mus musculus
assay_remarks: Antiinflammatory activity in methylated bovine serum albumin sensitized delayed-type hypersensitivity granuloma mouse model assessed as reduction of granuloma dry weight at 60 mg/kg, sc qd for 9 days
Type: functional
details: 216 h, route subcutaneous
measured_metric: inhibition in vivo at 60 mg/kg (%)

compound	number
CCOP(=O)(OCC)C1(P(=O)(OCC)OCC)C(=S)c2ccccc2N1C	45
CCOP(=O)(OCC)C1=C(S)c2ccccc2N(C)P1(=O)OCC (stereo not drawn)	53
CCOP1(=O)Nc2ccccc2C(S)=C1P(=O)(OCC)OCC (stereo not drawn)	42
CCOP(=O)(OCC)C1(P(=O)(OCC)OCC)C(=S)c2ccccc2N=C1c1ccccc1	32
O=P(O)(O)C(Cl)(Cl)P(=O)(O)O [CLODRONIC ACID]	44
CCOP(=O)(OCC)C1(P(=O)(OCC)OCC)C(=S)c2ccccc2N=C1C	37
CCOP(=O)(OCC)C1(P(=O)(OCC)OCC)Nc2ccccc2C1=S	42
CCOP(=O)(OCC)C1(P(=O)(OCC)OCC)N=C(c2ccc(N(CC)CC)cc2)c2ccccc2C1=S	40
